Data provenance: patent US20110217237A1

Reported EC50 is given for each of the following binders.
- Measured on: T1, mouse DLL4 extracellular domain (mouse, UniProt Q9JI71 27-532)
- T1 construct: extracellular domain; also called muDLL4 ECD; murine DLL4
- Assay remarks: binding ELISA
Supply the numeric figure in nM, leaving out any unit text.

### Prompt Output EC50 of h1A11.11 (antibody, V domains shown, humanized IgG; also called VH.1b/VL.1b 1A11) VH: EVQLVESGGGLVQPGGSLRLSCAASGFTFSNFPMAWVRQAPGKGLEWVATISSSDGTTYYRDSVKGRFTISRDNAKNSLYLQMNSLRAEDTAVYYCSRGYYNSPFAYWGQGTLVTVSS VL: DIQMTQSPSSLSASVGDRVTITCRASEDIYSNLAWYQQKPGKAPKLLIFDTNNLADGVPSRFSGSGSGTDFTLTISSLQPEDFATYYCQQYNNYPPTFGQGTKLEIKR
### Response 0.09

Others:
### Prompt Output EC50 of h1A11.16 (antibody, V domains shown, humanized IgG; also called VH.2a/VL.2a 1A11) VH: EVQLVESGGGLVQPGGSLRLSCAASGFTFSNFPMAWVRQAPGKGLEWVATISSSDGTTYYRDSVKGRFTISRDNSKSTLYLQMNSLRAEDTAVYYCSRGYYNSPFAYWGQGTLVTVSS VL: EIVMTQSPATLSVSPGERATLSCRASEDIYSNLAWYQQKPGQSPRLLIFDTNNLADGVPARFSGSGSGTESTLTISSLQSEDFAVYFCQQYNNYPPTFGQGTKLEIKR
### Response 0.09

### Prompt Output EC50 of h1A11.8 (antibody, V domains shown, humanized IgG; also called VH.1a/VL.2a 1A11) VH: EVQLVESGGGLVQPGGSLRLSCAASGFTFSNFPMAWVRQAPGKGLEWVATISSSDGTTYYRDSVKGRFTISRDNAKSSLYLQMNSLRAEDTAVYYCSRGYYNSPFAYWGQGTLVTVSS VL: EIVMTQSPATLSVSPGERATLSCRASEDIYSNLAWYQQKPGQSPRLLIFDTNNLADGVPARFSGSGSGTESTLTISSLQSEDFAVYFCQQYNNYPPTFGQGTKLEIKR
### Response 0.09
